Hey, just so you know, these numbers are from PubChem BioAssay (NCATS).

# Target: Cytochrome P450 3A7 (Homo sapiens) (UniProt P24462)
# Sequence (P24462 whole entry, looked up): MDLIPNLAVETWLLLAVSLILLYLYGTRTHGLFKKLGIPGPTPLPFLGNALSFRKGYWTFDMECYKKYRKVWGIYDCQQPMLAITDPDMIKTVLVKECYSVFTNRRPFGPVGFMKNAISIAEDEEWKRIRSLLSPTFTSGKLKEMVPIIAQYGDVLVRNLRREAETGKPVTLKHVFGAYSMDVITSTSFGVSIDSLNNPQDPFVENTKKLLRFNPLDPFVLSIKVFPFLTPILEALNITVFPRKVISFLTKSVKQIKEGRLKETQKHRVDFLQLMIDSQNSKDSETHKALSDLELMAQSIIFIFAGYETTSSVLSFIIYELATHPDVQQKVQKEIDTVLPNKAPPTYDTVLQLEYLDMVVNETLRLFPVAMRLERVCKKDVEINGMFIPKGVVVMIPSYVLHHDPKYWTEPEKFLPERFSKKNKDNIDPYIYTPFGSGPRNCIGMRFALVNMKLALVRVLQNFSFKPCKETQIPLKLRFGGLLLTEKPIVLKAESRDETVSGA
# Test Protocol: Cytochrome P450 family 3 subfamily A member 7 (CYP3A7) small molecule antagonists: luciferase biochemical qHTS assay (AID 1963596); also: nearly all actives have a fitted effect of over 40% in size
# Applied Conditions: P450-Glo CYP3A7 enzyme luminescence, 1 h; series mostly up to 57.4 µM
# Source text: National Center for Advancing Translational Sciences [NCATS] Assay Overview: Cytochrome P450 (CYP) enzymes are membrane-bound hemeproteins that play a key role in metabolism of drugs and xenobiotics. […] The luciferin products formed are detected with a luciferin detection reagent, and the amount of light produced is proportional to CYP activity. […]
Inconclusive results are not listed. Calls of active or inactive are those of the source. Calls follow the shape of the dose curve; as a rule, active = well fitted inhibition curve with a large enough effect; inconclusive = small, poorly fitted or top-dose-only effect; inactive = no such curve, though single readings can be large or run the other way.
Write down the outcome that applies. Available outcomes: t (active), f (inactive)

| Compound | Label |
| --- | --- |
| CN[C@@H](C)C(=O)N[C@H](C(=O)N1CCC[C@H]1c1nc(C(=O)c2ccc(F)cc2)cs1)C1CCCCC1 | t |
| Cc1cc(CS(=O)(=O)c2ccccc2)cc(OCc2ccc(CN3CCCC3CO)cc2)c1 (stereo not drawn) | f |
| NC1=N[C@H]2[C@H](CS[C@H]2CCCCC(=O)O)N1 | f |
| CC(C)c1cccc2c(-c3ccccc3)cc(-c3ccc(-c4ccc(C(=O)O)cc4)[nH]3)nc12 | f |
| CNS(=O)(=O)c1ccccc1Nc1nc(Nc2ccc(N3CCN(C)CC3)cc2OC)ncc1Br | f |
| CCOC(=O)c1cccc(N)c1 | t |
| COc1ccc(NC(=O)Cn2ccn(-c3ccc(C)c(C)c3)c(=O)c2=O)cc1Cl | f |
| CC1(O)CCC(C(C)(C)O)CC1 (stereo not drawn) | f |

// return assay outcome for CCCCCCOC(=O)c1cccnc1
f

// return assay outcome for O=C(Nc1ccccc1C(=O)Nc1ccc(CCO)cc1)c1ccc([N+](=O)[O-])cc1
f

// return assay outcome for Cn1ncnc1COc1nn2c(-c3cc(F)ccc3F)nnc2cc1C(C)(C)C
t

// return assay outcome for CCO/C([O-])=N/c1c[n+](N2CCOCC2)no1
f
